Biological target: Influenza A/H3N2 virus strain Ark1819002 (clade 3C.2a; virus protein quantified as hemagglutinin) (Influenza A virus (H3N2)) (UniProt P03437+P03437)
Test: filter
Mark met only for binding signal values smaller than 20 amol bound; exact matches and larger values are not met.

Exercise: Does GGGAGAAUUCCGACCAGAAGGCGCGAUUGUGUUGUGGUGGGUGGGCGCGCCUUUCCUCUCUCCUUCCUCUUCU [P30-10-h1-8] have binding signal strictly under 20 amol bound?
Key: met

Exercise: Does GGGAGAAUUCCGACCAGAAGUAGUAGCCCGGGUGUGGGUUUAUGGCCGCCCCUUUCCUCUCUCCUUCCUCUUCU [P30-10-h1-6] have binding signal strictly under 20 amol bound?
Key: not met

***
Exercise: Does GGGAGAAUUCCGACCAGAAGUAGUAGCCCGGGUGUGGGUUUAUGGUCGCCCCUUUCCUCUCUCCUUCCUCUUCU [P30-10-h1-1] have binding signal strictly under 20 amol bound?
Key: not met

Exercise: Does GGGAGAAUUCCGACCAGAAGGCUAUGGGUUGAGUUCUGUAUGGGUGGGUGCCUUUCCUCUCUCCUUCCUCUUCU [P30-10-h1-4] have binding signal strictly under 20 amol bound?
Key: not met

Exercise: Does GGGAGAAUUCCGACCAGAAGUAGUAGCCCGGGUGUGGGUUUAUGGUCGUCCCUUUCCUCUCUCCUUCCUCUUCU [P30-10-h1-7] have binding signal strictly under 20 amol bound?
Key: met

====

Exercise: for every item that follows, state its recorded binding signal.
Target: Influenza A/H3N2 virus strain Ark1819002 (clade 3C.2a; virus protein quantified as hemagglutinin) (Influenza A virus (H3N2)) (UniProt P03437+P03437)
Assay: filter
Answer with the figure and its unit, nothing else.

The cases that follow already have their binding signal on record.
Exercise: Param item = GGGAGAAUUCCGACCAGAAGGGUCGGUGUAUAAUUGUAGUUUUGUUGUUGUUGUUGUUGUUGCCUUUCCUCUCUCCUUCCUCUUCU [P30-10-h1-10] ; retrieve measured binding signal.
Key: 60.7 amol bound

Exercise: Param item = GGGAGAAUUCCGACCAGAAGUCCCCUCCCUCGUAUCGUAUGUGCGUUUGCCCUUUCCUCUCUCCUUCCUCUUCU [P30-10-h1-5] ; retrieve measured binding signal.
Key: 80.3 amol bound

Exercise: Param item = GGGAGAAUUCCGACCAGAAGUGUCGAUGUGUAUCUUAUUUGUUUGUUUGUUUGUUUGUUUGUCCUUUCCUCUCUCCUUCCUCUUCU [P30-10-h1-3] ; retrieve measured binding signal.
Key: 37.3 amol bound

Exercise: Param item = GGAGCUCAGCCUUCACUGCCAAAGUGCGAGGCAGUGUGGUGCUGUCCUACGAGUUCUAAAGUUCGUUAGGAAGGCAGCUCAACAUGUUUAACAGGCACCACCGUCGGAUCC [D12] ; retrieve measured binding signal.
Key: 0.1 amol bound

Exercise: Param item = GGGAGAAUUCCGACCAGAAGGCGCGAUUGUGGUUGUGGUGGGUGGGCGCGCCUUUCCUCUCUCCUUCCUCUUCU [P30-10-h1-2] ; retrieve measured binding signal.
Key: 166 amol bound

# evaluate next
Exercise: Param item = GGGAGAAUUCCGACCAGAAGGAACAUUUGUGGGUGGUGUGGGUGGCUGUUCCUUUCCUCUCUCCUUCCUCUUCU [P30-10-h1-9] ; retrieve measured binding signal.
Key: 832 amol bound
